Origin of the recorded values: patent US20200190197A1

ASSAY_TARGET: T1, His-tagged PD-L1 protein (human, UniProt Q9NZQ7 19-238)
T1 construct: also called His-tagged antigen PD-L1 protein; human PD-L1; not shown: His tag
T1 sequence (Q9NZQ7 19-238 limits assumed): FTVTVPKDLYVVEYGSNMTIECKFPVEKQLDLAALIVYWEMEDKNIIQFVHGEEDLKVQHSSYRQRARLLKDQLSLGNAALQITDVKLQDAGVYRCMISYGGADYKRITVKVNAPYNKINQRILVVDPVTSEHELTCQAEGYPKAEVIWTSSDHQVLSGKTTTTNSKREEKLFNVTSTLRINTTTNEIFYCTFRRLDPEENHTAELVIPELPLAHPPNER
EXPERIMENT: SPR, Biacore T200, multi-cycle; Fab captured on chip, His-tagged PD-L1 as analyte
Reported values of koff for individual entries
// units = s⁻¹; emit number, no label

BINDER	MEASUREMENT
AS01814 (humanized Fab) (Fab, V domains shown, Purified humanized Fab) VH: QVQLVQSGSELKKPGASVKVSCKASGYTFTSYSINWVRQAPGKGLEWVAYFYVGNGYTDYNEKFKGRVTITADESTSTAYMELSSLRSEDTAVYYCARGGLPYYFDYWGQGTLVTVSS VL: DIQMTQSPSTLSASVGDRVTITCKTSQDVNTAVAWYQQKPGKAPKLLLYWASTRHTGIPARFSGSGSGTEFTLTISSLQSEDFAVYYCQQHYNTPLTFGGGTKLEIK	0.00011
AS01824 (humanized Fab) (Fab, V domains shown, Purified humanized Fab) VH: QVQLVQSGSELKKPGASVKVSCKASGYTFTSYSINWVRQAPGKGLEWVAYFYVGNGYTDYNEKFKGRVTITADESTSTAYMELSSLRSEDTAVYYCARGGLPYYFDYWGQGTLVTVSS VL: EIVMTQSPATLSVSPGERATLSCKTSQDVNTAVAWYLQKPGQSPQLLIYWASTRHTGVPSRFSGSGSGTDYTLTISSLQPEDFATYYCQQHYNTPLTFGGGTKLEIK	0.00054

Now consider a different binder.
Identify measured koff corresponding to AS01995 (humanized Fab) (Fab, V domains shown, Purified humanized Fab) VH: EVQLVQSGAEVKKPGESLKISCKGSGYSFTSYSINWVRQAPGKGLEWMGYFYVGNGYTDYNEKFKGRVTMTRNTSISTAYMELSSLRSEDTAVYYCARGGLPYYFDYWGQGTLVTVSS VL: DIQMTQSPSSVSASVGDRVTITCKTSQDVNTAVAWYQQKPGKAPKLLLYWASTRHTGVPSRFSGSGSGTDFTLTISSLQPEDVATYYCQQHYNTPLTFGGGTKLEIK
0.00017
